target: Drosophila OR10a (Drosophila melanogaster, UniProt Q9VYZ1); construct: expressed in transfected cells; assay: Calcium ion fluorescence (GCaMP6) assay, OR10a stable HEK293 cell line; type: cell-based; conditions: AVERAGE EC50, from the average LOG EC50 of 5 biological replicates; unit inferred
Sequence (Q9VYZ1 whole entry, one chain of several): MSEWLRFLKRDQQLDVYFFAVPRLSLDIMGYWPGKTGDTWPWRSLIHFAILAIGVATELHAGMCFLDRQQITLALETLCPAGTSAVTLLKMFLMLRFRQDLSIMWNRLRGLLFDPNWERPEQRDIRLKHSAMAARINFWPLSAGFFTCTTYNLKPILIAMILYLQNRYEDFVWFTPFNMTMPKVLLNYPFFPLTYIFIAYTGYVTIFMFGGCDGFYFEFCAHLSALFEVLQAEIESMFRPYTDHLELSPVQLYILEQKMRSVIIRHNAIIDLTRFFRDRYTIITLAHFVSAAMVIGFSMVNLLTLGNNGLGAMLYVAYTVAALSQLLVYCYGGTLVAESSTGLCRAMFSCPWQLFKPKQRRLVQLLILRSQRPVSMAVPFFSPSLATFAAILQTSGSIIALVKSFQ
Measured Metric: pEC50
Interpret pEC50 as the negative base-10 log of the concentration measured in mol/L.

Any idea what its pEC50 is? The compound is COC(=O)c1ccccc1O [methyl salicylate]
7.12

* * *

The entries below are paired with their reported activity at 10 µM.
Target: Drosophila OR47a (Drosophila melanogaster, UniProt P81921)
Construct: expressed in transfected cells
Sequence (P81921 1-385): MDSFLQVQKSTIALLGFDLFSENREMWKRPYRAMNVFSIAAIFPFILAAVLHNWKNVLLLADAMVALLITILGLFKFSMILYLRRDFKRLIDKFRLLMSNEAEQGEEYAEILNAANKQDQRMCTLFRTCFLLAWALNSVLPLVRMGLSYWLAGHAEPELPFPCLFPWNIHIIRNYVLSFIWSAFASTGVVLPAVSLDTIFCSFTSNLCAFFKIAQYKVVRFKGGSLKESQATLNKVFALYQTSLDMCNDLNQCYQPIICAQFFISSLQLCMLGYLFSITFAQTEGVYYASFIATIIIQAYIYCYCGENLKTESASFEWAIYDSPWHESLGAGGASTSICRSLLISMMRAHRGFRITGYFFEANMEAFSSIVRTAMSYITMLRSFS
Sequence (Q9VNB5 1-486 partner): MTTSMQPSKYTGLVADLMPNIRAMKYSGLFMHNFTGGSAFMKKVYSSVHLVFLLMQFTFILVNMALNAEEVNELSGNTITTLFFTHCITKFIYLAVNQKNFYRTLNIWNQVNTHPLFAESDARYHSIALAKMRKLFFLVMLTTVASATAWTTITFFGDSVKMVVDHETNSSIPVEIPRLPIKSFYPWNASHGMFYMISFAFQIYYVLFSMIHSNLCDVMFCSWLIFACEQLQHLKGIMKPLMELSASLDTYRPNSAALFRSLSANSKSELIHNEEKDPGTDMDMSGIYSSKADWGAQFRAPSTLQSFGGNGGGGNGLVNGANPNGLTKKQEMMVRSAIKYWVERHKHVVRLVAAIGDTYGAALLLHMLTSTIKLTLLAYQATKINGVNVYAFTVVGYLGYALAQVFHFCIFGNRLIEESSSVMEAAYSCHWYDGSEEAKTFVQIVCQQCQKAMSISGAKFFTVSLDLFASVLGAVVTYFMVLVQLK
Assay: cell-based
Design: GCaMP6 calcium fluorescence in stable HEK293 OR+ORCO lines; peak dF normalised to 50 uM VUAA1 (=1)
Conditions: HEK293; relative to 50 uM VUAA1 response; below 0.05 set to 0; read-out: % activation
Expressed in %, but write only the number.

Recorded results for 3 molecules are shown here.
molecule=OCCc1ccccc1 target_or_test_system="Drosophila OR47a (Drosophila melanogaster, UniProt P81921)" observed_value=6.44
molecule="C=C1[C@H]2CC[C@@H]3[C@H]2C(C)(C)CCC[C@]13C [(+)-longifolene]" target_or_test_system="Drosophila OR47a (Drosophila melanogaster, UniProt P81921)" observed_value=0
molecule="C=C(C)C1CCC2(C)OC2C1 (single isomer, unassigned; (+)) [(+)-limonene oxide]" target_or_test_system="Drosophila OR47a (Drosophila melanogaster, UniProt P81921)" observed_value=0

# next molecule below
Fill in: activity at 10 µM of C=C1CC[C@@]23C[C@@H]1C(C)(C)[C@@H]2CC[C@H]3C [(+)-beta-cedrene] is ___
0

# credit: paper PMC10709440
